Below: a set of entries, each annotated with reported Trimeric HA Binding: RLU.
targetDesc: recombinant soluble homotrimeric HA, A/Vietnam/1203/04 H5N1 (Influenza A virus A/VietNam/1203/2004(H5N1))
assayText: microarray, transfection SN IgG, trimeric HA
conditionSummary: remark: other sources report otherwise
outcomeMeasure: Trimeric HA Binding: RLU (RLU)

| binder | resultNumber |
| --- | --- |
| TCN-555 (5246_L16) (antibody, V domains shown) VH: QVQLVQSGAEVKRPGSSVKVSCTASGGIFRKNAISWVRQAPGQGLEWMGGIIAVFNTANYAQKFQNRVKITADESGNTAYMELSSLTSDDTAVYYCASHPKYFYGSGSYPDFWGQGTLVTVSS VL: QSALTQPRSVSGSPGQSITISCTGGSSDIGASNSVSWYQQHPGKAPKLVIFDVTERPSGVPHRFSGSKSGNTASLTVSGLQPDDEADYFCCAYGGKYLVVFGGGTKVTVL | 19300 |
| TCN-553 (5261_C18) (antibody, V domains shown) VH: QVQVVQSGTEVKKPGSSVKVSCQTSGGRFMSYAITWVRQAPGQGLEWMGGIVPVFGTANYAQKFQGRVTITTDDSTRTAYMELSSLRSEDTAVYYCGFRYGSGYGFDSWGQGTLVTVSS VL: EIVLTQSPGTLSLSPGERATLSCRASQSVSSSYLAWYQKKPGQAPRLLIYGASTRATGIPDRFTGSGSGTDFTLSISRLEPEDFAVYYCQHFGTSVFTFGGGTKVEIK | 19200 |
